Source of measurements: patent US20240400584A1

# Tested on: MYB
# procedure.text: RT-qPCR splicing assay, MYB AJ/CJ mRNA
# Assay type: cell-based
# setup.conditions: Homo sapiens, increase in alternative junction mRNA, A673 or K562 cells, 24 hours
# Procedure: Compounds described herein were used to modulate RNA transcript abundance in cells. The expression of a target mRNA was measured by detecting the formation of an exon-exon junction in the canonical transcript (CJ). A compound mediated exon-inclusion event was detected by observing an increase in formation OF A new junction with an alternative exon (AJ). Real-time qPCR assays were used to detect these splicing switches and interrogate the potency of various compounds towards different target Genes. […]
measurement.kind: AC50

molecule="O=c1cc(-c2ccc3c(c2)COc2nc(OC4CC5CC(F)(F)C(C4)N5)ccc2-3)cc[nH]1 (centres unmarked)" result="> 10 µM"
molecule=c1cnn(-c2ccc3c(c2)COc2nc(N4CCCC5(CNC5)C4)ccc2-3)c1 result="> 10 µM"
molecule="c1cnn(-c2ccc3c(c2)COc2nc(N4CCCC5(CCNC5)C4)ccc2-3)c1 (centres unmarked)" result="> 10 µM"
molecule=CN(c1ncc2c(n1)OCc1cc(-c3cnnc(O)c3)ccc1-2)C1CC(C)(C)NC(C)(C)C1 result="1 to 10 µM"

Ask | Consider the molecule CN1C[C@@H]2[C@H](C1)[C@H]2N(C)c1ccc2c(n1)OCc1cc(-n3cccn3)ccc1-2 and give its measured AC50.
Reply | > 10 µM

Ask | Would you mind doing CN(c1ccc2c(n1)OCc1cc(-c3cn[nH]c3)ccc1-2)C1CCNCC1 as well?
Reply | 1 to 10 µM

Ask | Follow-up entry: c1cnn(-c2ccc3c(c2)COc2nc(N4CCC5(CCCNC5)C4)ccc2-3)c1 (centres unmarked)
Reply | > 10 µM

Ask | Let us now turn to c1cnn(-c2ccc3c(c2)COc2nc(N4CCNCC4)ccc2-3)c1
Reply | > 10 µM

----------
# Tested on: HTT
# procedure.text: RT-qPCR splicing assay, HTT AJ/CJ mRNA
# Type: cell-based, human
# setup.conditions: Homo sapiens, 24 h, decrease in canonical junction mRNA, A673 or K562 cells
pIC50: −log10 of the molar value.
measurement.kind: pIC50

Worked set:
molecule="COc1cc(-c2ccc3c(c2)COc2nc(N4CC[C@@H](N(C)C(C)(C)C)C4)ccc2-3)cnn1 [Compound 271]" target_entity=HTT result="> 7.00"
molecule="COc1cc(-c2ccc3c(c2)COc2nc(N(C)[C@@H]4C[C@H]5CC[C@@H](C4)N5)ncc2-3)cnn1 [Compound 295]" target_entity=HTT result="> 7.00"
molecule="CCOc1cc(-c2ccc3c(c2)COc2nc(N4CCC(NC(C)(C)C)C4)ccc2-3)cnn1 (stereo not drawn) [Compound 267]" target_entity=HTT result="6.00 to 7.00"
molecule="COc1cc(-c2ccc3c(c2)COc2nc(N(C)C4CC(C)(C)NC(C)(C)C4)ccc2-3)cnn1 [Compound 231]" target_entity=HTT result="6.00 to 7.00"
molecule="CN(c1cnc2c(n1)OCc1cc(-c3cn[nH]c3)ccc1-2)[C@@H]1C[C@H]2CC[C@@H](C1)N2 [Compound 144]" target_entity=HTT result="6.00 to 7.00"

Ask | What value of pIC50 has been reported for the following molecule? CCN(CC)C1CCN(c2ccc3c(n2)OCc2cc(-c4cnnc(OC)c4)ccc2-3)C1 (stereo not drawn) [Compound 321]
Reply | 6.00 to 7.00

Ask | Try the molecule CN1CCC12CCN(c1ccc3c(n1)OCc1cc(-c4cn[nH]c4)ccc1-3)C2 (stereo not drawn) [Compound 220]
Reply | 6.00 to 7.00

Ask | What about this molecule? CN(C)[C@H]1[C@@H]2CN(c3ccc4c(n3)OCc3cc(-n5cccn5)ccc3-4)C[C@@H]21 [Compound 197]
Reply | 5.00 to 6.00

Ask | Similarly, COc1cc(-c2ccc3c(c2)COc2nc(N4CCC(NC5(C)CC5)C4)ccc2-3)cnn1 (stereo not drawn) [Compound 256] ?
Reply | 6.00 to 7.00

----------
A collection of molecules and their measured AC50
# System: MYB
# procedure.text: RT-qPCR splicing assay, MYB AJ/CJ mRNA
# Format: cell-based
# setup.conditions: Homo sapiens, increase in alternative junction mRNA, A673 or K562 cells, 24 hours

molecule="COc1cc(-c2ccc3c(c2)COc2nc(N(C)[C@@H]4C[C@H]5CC[C@@H](C4)N5)ncc2-3)cnn1 [Compound 295]" result="1000 to 10000 nM"
molecule="COc1cc(-c2ccc3c(c2)COc2nc(N4CCN[C@@H](C5CC5)C4)ccc2-3)cnn1 [Compound 296]" result="100 to 1000 nM"
molecule="COc1cc(-c2ccc3c(c2)COc2nc(N4CCC(N(C)CC5CC5)C4)ccc2-3)cnn1 (stereo not shown) [Compound 308]" result="1000 to 10000 nM"
molecule="COc1cc(-c2ccc3c(c2)COc2nc(N(C)[C@H]4C[C@@H]5CC(F)(F)[C@H](C4)N5)ccc2-3)cnn1 [Compound 247]" result="> 10000 nM"
molecule="CC1(C)CC(Nc2ccc3c(n2)COc2cc(-n4cccn4)ccc2-3)CC(C)(C)N1 [Compound 134]" result="> 10000 nM"
molecule="COc1cc(-c2ccc3c(c2)COc2nc(OC4CC5CC(F)(F)C(C4)N5)ccc2-3)cnn1 (stereo not shown) [Compound 225]" result="> 10000 nM"

Continue with the molecule presented below.
Ask | Could you tell me which AC50 is on file for c1cc2c(cc1-c1cn[nH]c1)COc1nc(N3CCC34CCNC4)ccc1-2 (stereo not shown) [Compound 207] ?
Reply | 100 to 1000 nM

----------
# Test system: MYB
# procedure.text: RT-qPCR splicing assay, MYB AJ/CJ mRNA
# Format: cell-based
# setup.conditions: Homo sapiens, increase in alternative junction mRNA, A673 or K562 cells, 24 hours
Measured AC50 values are reported for all entries that follow.

Ask | Which measured AC50 value corresponds to CN1C[C@@H]2CN(c3ccc4c(n3)OCc3cc(-n5cccn5)ccc3-4)C[C@@H]2C1 ?
Reply | 1 to 10 µM

Ask | Same read-out for c1cnn(-c2ccc3c(c2)OCCc2cc(N[C@@H]4C[C@H]5CC[C@@H](C4)N5)ccc2-3)c1 ?
Reply | > 10 µM

Ask | Next: COc1cc(-c2ccc3c(c2)COc2nc(O[C@@H]4C[C@H]5COC[C@@H](C4)N5)ccc2-3)cnn1
Reply | 0.1 to 1 µM

Ask | Do the same for c1cnn(-c2ccc3c(c2)COc2nc(N[C@@H]4C[C@H]5CCC[C@@H](C4)N5)ccc2-3)c1 please
Reply | 0.1 to 1 µM

Ask | Try the compound CN(c1ccc2c(n1)OCc1cc(-n3cccn3)ccc1-2)[C@H]1C[C@]2(C)CC[C@](C)(C1)N2
Reply | 0.1 to 1 µM

Ask | Note, next up: c1cnn(-c2ccc3c(c2)COc2nc(N4CCC5(CC4)CNC5)ccc2-3)c1
Reply | 0.1 to 1 µM

Ask | Same read-out for CN(c1ncc2c(n1)OCc1cc(-c3cn[nH]c3)ccc1-2)[C@@H]1C[C@H]2CC[C@@H](C1)N2 ?
Reply | 1 to 10 µM

Ask | For COc1cc(-c2ccc3c(c2)COc2nc(N4CCC(N5CCC5)C4)ccc2-3)cnn1 (stereo not drawn) then?
Reply | 1 to 10 µM

Ask | Quick one: COc1cc(-c2ccc3c(c2)COc2nc(O[C@@H]4C[C@H]5CC[C@@H](C4)N5)ncc2-3)cnn1
Reply | 0.1 to 1 µM

Ask | # iterate: Cc1ncc(-c2ccc3c(c2)COc2nc(O[C@@H]4C[C@H]5C[C@@H](C4)N5)ccc2-3)s1
Reply | 0.1 to 1 µM

Ask | And then c1cnn(-c2ccc3c(c2)COc2nc(N[C@@H]4C[C@H]5CC[C@@H](C4)N5)ccc2-3)c1 , what is it?
Reply | 0.1 to 1 µM

----------
// reported AC50 for each item listed
# Test system: MYB
# procedure.text: RT-qPCR splicing assay, MYB AJ/CJ mRNA
# Format: cell-based
# setup.conditions: Homo sapiens, increase in alternative junction mRNA, A673 or K562 cells, 24 hours

Here is how some compounds turned out for AC50.
compound=COc1cc(-c2ccc3c(c2)COc2nc(N4CC[C@H](N(C)C(C)(C)C)C4)ccc2-3)cnn1 result="100 to 1000 nM"
compound="COc1cc(-c2ccc3c(c2)COc2nc(N4CCC(N(C)C5CC5)C4)ccc2-3)cnn1 (stereo not drawn)" result="1000 to 10000 nM"
compound="COc1cc(-c2ccc3c(c2)COc2nc(N4CCC(N(C)C5CCC5)C4)ccc2-3)cnn1 (stereo not drawn)" result="100 to 1000 nM"
compound=COc1cc(-c2ccc3c(c2)COc2nc(N4CCC(NC(C)C)CC4)ccc2-3)cnn1 result="1000 to 10000 nM"
compound=COc1cc(-c2ccc3c(c2)COc2nc(N(C)[C@@H]4C[C@H]5CC[C@@H](C4)N5)ccc2-3)cnn1 result="< 100 nM"

Moving on to another compound below.
Ask | // returns reported AC50 for input CC(C)(C)NC1CCN(c2ccc3c(n2)OCc2cc(-c4cnnc(C5CC5)c4)ccc2-3)C1 (stereo not drawn)
Reply | > 10000 nM
